# tgt: D(2) dopamine receptor (Rattus norvegicus)
measure: KL (µM)
Numbers only, in µM.

molecule: CCCN1CCc2cccc3c2[C@H]1Cc1ccc(O)c(O)c1-3
units: µM
KL: 0.023

Provide each entry's KL from the list below.
1. CN(C)C1CCc2cc(O)c(O)cc2C1 (stereo unspecified)
2. Oc1ccc(C2CNCCc3c2cc(O)c(O)c3Cl)cc1 (stereo unspecified)
3. CNC[C@H](O)c1ccc(O)c(O)c1
4. NCCc1c[nH]c2ccc(O)cc12
5. NC[C@H](O)c1ccc(O)c(O)c1

A)
[0.463, 1, 128, 183, 126]

###

# tgt: D(1A) dopamine receptor (Rattus norvegicus)
# assay: Low-affinity agonist dissociation constant against striatal Dopamine receptor D1A
# Type: functional
# KL >= 600 nM gives yes (1), anything below gives no (0)

Known results for compounds:
compound: CNC[C@H](O)c1ccc(O)c(O)c1
classification: yes (1)
--
compound: NCCc1ccc(O)c(O)c1
classification: no (0)
--
compound: Oc1ccc([C@@H]2CNCCc3c2cc(O)c(O)c3Cl)cc1
classification: yes (1)
--
compound: Oc1ccc(C2CNCCc3c2cc(O)c(O)c3Cl)cc1 (centres undefined)
classification: no (0)

Q) Check the entry NC[C@H](O)c1ccc(O)c(O)c1 : does KL equal or exceed 600 nM?
A) yes (1)

Q) Check the entry Oc1cc2c(cc1O)[C@@H](c1ccccc1)CNCC2 : does KL equal or exceed 600 nM?
A) no (0)

Q) Check the entry CN(C)C1CCc2cc(O)c(O)cc2C1 (centres undefined) : does KL equal or exceed 600 nM?
A) yes (1)

Q) Check the entry CCCN1CCc2cccc3c2[C@H]1Cc1ccc(O)c(O)c1-3 : does KL equal or exceed 600 nM?
A) yes (1)

Q) Check the entry NCCc1c[nH]c2ccc(O)cc12 : does KL equal or exceed 600 nM?
A) yes (1)
